Values compiled from paper PMC8567874.

assay_info: In situ single-pass rat intestinal perfusion
Type: in vivo
particulars: rat, outlet intestinal perfusate, other: in situ single-pass intestinal perfusion, 100 μg/mL, rat intestinal perfusion, 60 min; read-out: Outlet concentration of PMX (Cout)
measurement_name: concentration at 60 min (µg/mL)
Write it as a number; the unit µg/mL goes unstated.

Ask: GET /values?readout=concentration at 60 min&item= Nc1nc2[nH]cc(CCc3ccc(C(=O)N[C@@H](CCC(=O)O)C(=O)O)cc3)c2c(=O)[nH]1 [PMX, Pemetrexed]
Reply: 94.9

====

assay_info: In situ single-pass rat intestinal perfusion
Assay type: in vivo
particulars: rat, outlet intestinal perfusate, other: in situ single-pass intestinal perfusion, 100 μg/mL, rat intestinal perfusion, 60 min; read-out: Corrected outlet PMX concentration (Cout,corr)
Description: The in situ single-pass intestinal effective permeabilities (Peff) of PMX, PMX/DL(1:1), PMX/DL(1:2), PMX/DL(1:1)-CD, and PMX/DL(1:2)-CD were investigated in rats. […] At the end of the experiment, the lengths and radii of the cannulated intestinal segments were measured, taking care to avoid stretching them. […] The outlet concentration of PMX in the perfusate was analyzed by HPLC as described above. […]
measurement_name: concentration at 60 min (µg/mL)
Write it as a number; the unit µg/mL goes unstated.

Ask: GET /values?readout=concentration at 60 min&item= Nc1nc2[nH]cc(CCc3ccc(C(=O)N[C@@H](CCC(=O)O)C(=O)O)cc3)c2c(=O)[nH]1 [PMX, Pemetrexed]
Reply: 95.4

====

assay_info: In situ single-pass rat intestinal perfusion
Type: in vivo
particulars: rat, outlet intestinal perfusate, other: in situ single-pass intestinal perfusion, 100 μg/mL, rat intestinal perfusion, 30 min; read-out: Corrected outlet PMX concentration (Cout,corr)
measurement_name: concentration at 30 min (µg/mL)
Write it as a number; the unit µg/mL goes unstated.

Ask: GET /values?readout=concentration at 30 min&item= Nc1nc2[nH]cc(CCc3ccc(C(=O)N[C@@H](CCC(=O)O)C(=O)O)cc3)c2c(=O)[nH]1
Reply: 96

====

assay_info: In vivo pharmacokinetic study in rats
Parameters: species or system Sprague–Dawley (SD) rats
particulars: Sprague-Dawley, rat, plasma, IV, 10 mg/kg PMX
measurement_name: AUC(0-inf) (ng·h/mL)
Write it as a number; the unit ng·h/mL goes unstated.

Ask: GET /values?readout=AUC(0-inf)&item= Nc1nc2[nH]cc(CCc3ccc(C(=O)N[C@@H](CCC(=O)O)C(=O)O)cc3)c2c(=O)[nH]1
Reply: 25300
